Values were extracted from patent US20230285514A1.

Biological target: human Glucagon receptor (GCGR) (human, UniProt P47871)
Experiment: cell-based or functional assay
*1 amine or outer side, *2 acyl side, *3 side chain or, on linkers, in order; H or OH if unused. Bridges are numbered along the chain shown (N, C = ends). Where no end group is shown, it is not given here. [ ]: non-standard residue; d: D form. γGlu = O=C(O)[C@H](CCC(=O)[*:2])N[*:1]; Met(O2) = CS(=O)(=O)CC[C@H](N)C(=O)O; Ac4c = NC1(C(=O)O)CCC1; Aib = CC(C)(N)C(=O)O
MEASURED ATTRIBUTE: GCGR EC50 human (nM), cAMP activity assay
Answer with the number, then the unit.

Find the recorded GCGR EC50 human (nM), cAMP activity assay belonging to H[dS]QGTFTSDKSKYLDKRAAEDFVQWLLDT-NH2 (lactam 16-20; not fully specified (residue 10); printed as HsQGTFTSDK(γEγEC16)SKYLDK*RAAE*DFVQWLLDT-NH2) [Peptide SEQ ID No. 10 (TP706)] and report it.
0.089 nM

Next up: H[Aib]QGTFTSDKSKYLD[Ac4c]KAAQEFVQWL[Met(O2)]DTK(γGlu)-NH2 (lactam 17-21; not fully specified (residue 10)) [TP857]
0.092 nM

Cool, now H[Aib]QGTFTSDKSKYLD[Ac4c]RAAQDFVKWL[Met(O2)]ETK(γGlu)-NH2 (lactam 24-28; not fully specified (residue 10)) [TP861]
0.928 nM

Check H[Aib]QGTFTSDKSKYLD[Ac4c]RAAKDFVEWL[Met(O2)]DTK(γGlu)-NH2 (lactam 20-24; not fully specified (residue 10)) [TP859] too.
0.108 nM
